Decide using logP alone. Strictly below 1: Criterion met. Equal to or above 1: Criterion not met.

- COMPOUND: "c1cnc2c(c1)ccc1ncccc12"
  LABEL_CLASS: "Criterion not met"
- COMPOUND: "Nc1ncnc2c1ncn2[C@@H]1O[C@H](CO)C[C@H]1O"
  LABEL_CLASS: "Criterion met"
- COMPOUND: "CCCCCBr"
  LABEL_CLASS: "Criterion not met"
- COMPOUND: "CC(=O)c1ccc(S(=O)(=O)NC(=O)NC2CCCCC2)cc1"
  LABEL_CLASS: "Criterion not met"
- COMPOUND: "[O-][n+]1ccc(Cl)c2ccccc21"
  LABEL_CLASS: "Criterion not met"
- COMPOUND: "Nc1ccc2ncccc2c1"
  LABEL_CLASS: "Criterion not met"
- COMPOUND: "Cc1ccnc(N)c1"
  LABEL_CLASS: "Criterion met"
- COMPOUND: "Brc1cccnc1"
  LABEL_CLASS: "Criterion not met"
- COMPOUND: "CCOC(=O)C(C#N)=NNc1cc(Cl)c(Cl)cc1Cl"
  LABEL_CLASS: "Criterion not met"
- COMPOUND: "NC(=O)CCCc1ccccn1"
  LABEL_CLASS: "Criterion met"
- COMPOUND: "Nc1ccc(S(=O)(=O)Nc2ncccn2)cc1"
  LABEL_CLASS: "Criterion met"
- COMPOUND: "Cc1ccccc1C"
  LABEL_CLASS: "Criterion not met"
- COMPOUND: "CC(=O)CC(C)=O"
  LABEL_CLASS: "Criterion met"
- COMPOUND: "CC(N)C(O)c1ccccc1 (stereo unspecified)"
  LABEL_CLASS: "Criterion met"
- COMPOUND: "O=C(O)CCCCn1nnc2ccccc21"
  LABEL_CLASS: "Criterion met"
- COMPOUND: "Cc1cccc(N)c1"
  LABEL_CLASS: "Criterion not met"
